assay: in vivo; design: species or system cynomolgus monkeys; conditions: both sexes, cynomolgus monkey, po, 10 mg
Starred links: 1 amine or outer side, 2 acyl side, 3 side chain; linkers in the order of their positions; H or OH if unused. Non-standard residues stand in square brackets, D forms with d. Groups on a side chain read outwards from the residue. *: point of attachment. C18 diacid = O=C(O)CCCCCCCCCCCCCCCCC(=O)*; αMePhe(2-F) = C[C@](N)(Cc1ccccc1F)C(=O)O; γGlu = O=C(O)[C@H](CCC(=O)[*:2])N[*:1]; αMe4Pal = C[C@](N)(Cc1ccncc1)C(=O)O; αMeY = C[C@](N)(Cc1ccc(O)cc1)C(=O)O; 4Pal = N[C@@H](Cc1ccncc1)C(=O)O; αMeL = CC(C)C[C@](C)(N)C(=O)O; αMeS = C[C@](N)(CO)C(=O)O; Orn = NCCC[C@H](N)C(=O)O; AEEA = NCCOCCOCC(=O)O; Aib = CC(C)(N)C(=O)O
bioavailability values for the substances below.
API: value field is a number in %; no unit string.

SUBSTANCE	UNIT NAME	bioavailability
H-Y[Aib]QGT[αMePhe(2-F)]TSD[4Pal][αMeS]ILLD[Orn]K([γGlu-γGlu-C18 diacid])AQ[Aib][Orn]FI[dE]YLIEGGPSSGEPPPSGTGE-NH2 [Example 548]	%	0.6
H-Y[Aib]QGT[αMePhe(2-F)]TSD[4Pal][αMeS]I[αMeL]LD[Orn]K([AEEA-γGlu-C18 diacid])AQ[αMe4Pal]EFI[dE][αMeY]LVEGGPSSGAPPPSGS-NH2 [Example 694]	%	2.4
H-Y[Aib]QGTFTSD[4Pal]SQ[αMeL]LDKK([γGlu-γGlu-C18 diacid])AQ[αMe4Pal]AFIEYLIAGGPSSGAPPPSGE-NH2 [Example 883]	%	0.3
H-Y[Aib]QGT[αMePhe(2-F)]TSD[4Pal][αMeS]I[αMeL]LD[Orn]K([AEEA-γGlu-C18 diacid])AQ[αMe4Pal]EFI[dE][αMeY]LIEGGPSSGAPPPSGGGE-NH2 [Example 741]	%	0.8
H-Y[Aib]QGT[αMePhe(2-F)]TSD[4Pal]SILLDKK([γGlu-γGlu-C18 diacid])AQ[Aib]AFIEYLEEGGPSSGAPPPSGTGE-NH2 [Example 510]	%	0.7

// H-Y[Aib]QGT[αMePhe(2-F)]TSD[4Pal]SI[αMeL]LD[Orn]K([γGlu-γGlu-C18 diacid])AQ[αMe4Pal][Orn]FI[dE][αMeY]LIEGGPSSGEPPPETE-NH2 [Example 686] : bioavailability value = 3.6

Per the record, H-Y[Aib]QGTFTSD[4Pal]SQ[αMeL]LD[Orn]K([γGlu-γGlu-C18 diacid])AQ[αMe4Pal]AFIE[αMeY]LIEGGPSSGEPPPSGSEE-NH2 [Example 1027] has bioavailability of 1.2

Notebook: H-Y[Aib]QGT[αMePhe(2-F)]TSD[4Pal][αMeS]I[αMeL]LD[Orn]K([AEEA-γGlu-C18 diacid])AQ[αMe4Pal]EFI[dE][αMeY]LIEGGPSSGAPPPSGSE-NH2 [Example 712] , bioavailability read as 0.9

Data origin: patent US20240270821A1
